Test system: HTT mRNA, alternative junction (AJ)
Assay: Splicing assay (RT-qPCR): increase in HTT alternative junction (AJ) mRNA
Assay type: cell-based
Conditions: A673 or K562 cell line, 24 hours treatment, top dose 10 uM; concentration having 50% response in AJ increase
Metric name: AC50

Tell me its AC50 given Cc1cn2cc(NC(=O)c3ccc(N4CCNCC4)c4ccnnc34)cc(C)c2n1 [Compound 125] as the entry.
1000 to 10000 nM

Consider the molecule Cc1cn2cc(NC(=O)c3ccc(C4CCNCC4)c4ccnnc34)cc(F)c2n1 [Compound 103] . State its measured AC50.
100 to 1000 nM

Identify the reported AC50 for the following entry. Cc1cn2cc(NC(=O)c3ccc(N4C[C@H]5CC[C@@H](C4)N5)c4ccnnc34)cc(F)c2n1 [Compound 108]
1000 to 10000 nM

Quick one: give measured AC50 for Cc1cc2c(N3CCNCC3)ccc(C(=O)Nc3cc(F)c4nc(C)cn4c3)c2nn1 [Compound 159]
100 to 1000 nM

Indicate its recorded AC50; the molecule in question is Cc1cn2cc(NC(=O)c3ccc(N4CCNC(C)C4)c4ccnnc34)cc(F)c2n1 (stereo in doubt) [Compound 147]
1000 to 10000 nM

We next turn to a different molecule, shown below.
Give me measured AC50, please, for this molecule: Cc1cn2cc(NC(=O)c3ccc(N4CCNCC4)c4ccnnc34)c(C)cc2n1 [Compound 119]
1000 to 10000 nM

###

Form field: AC50 (one value per entry).
Test system: HTT mRNA, alternative junction (AJ)
Experiment: Splicing assay (RT-qPCR): increase in HTT alternative junction (AJ) mRNA
Assay type: cell-based
Conditions: A673 or K562 cell line, 24 hours treatment, top dose 10 uM; concentration having 50% response in AJ increase

Please give the documented AC50 of `Cc1cn2cc(NC(=O)c3ccc(N(C)C4CC(C)(C)NC(C)(C)C4)c4ccnnc34)cc(F)c2n1`
1000 to 10000 nM

Continuing:
Provide AC50 value for the following compound: `Cc1nc2c(F)cc(NC(=O)c3ccc(N4CCNCC4)c4ccnnc34)cc2s1`
100 to 1000 nM

Supply reported AC50 belonging to this compound: Cc1cn2cc(NC(=O)c3ccc(N4CCN5CCCC5C4)c4ccnnc34)cc(F)c2n1 (stereo in doubt) [Compound 154]
1000 to 10000 nM
